tested on: C33A; test: Primary qHTS to identify gynecologic anti-cancer compounds using libraries of approved drugs and bioactive compounds (AID 1345084); settings: Gynecologic cancer cell panel viability, ATPlite luminescence, 48 h; series mostly up to 57.5 µM; further: on the % scale 0 is the no-effect control and ±100 the full control effect; nearly all actives have a fitted effect of over 55% in size
Results filed as inconclusive are left out. Activity calls are given as the source filed them. The call rests on the fitted dose curve; in most records, active means well fitted cell-killing curve with a large enough effect; inconclusive means small, poorly fitted or top-dose-only effect, or effect the other way; inactive means flat fitted curve, though single readings scatter.
metric.name: activity change, negative = cytotoxicity

Before answering, review these 4 worked examples.
CC1(C)CC[C@]2(C(=O)O[C@@H]3O[C@H](CO[C@@H]4O[C@H](CO)[C@@H](O)[C@H](O)[C@H]4O[C@@H]4O[C@H](CO)[C@H](O)[C@H](O)[C@H]4O)[C@@H](O)[C@H](O[C@@H]4O[C@H](CO)[C@@H](O)[C@H](O)[C@H]4O)[C@H]3O)CC[C@]3(C)C(=CCC4[C@@]5(C)CC[C@H](O[C@@H]6OC[C@@H](O)[C@H](O)[C@H]6O)[C@@](C)(C(=O)O)C5CC[C@]43C)[C@@H]2C1 (stereo not given in full) | -13.6% [at 6.55 µM] (inactive)
COC(=O)C[C@H]1C(C)(C)[C@H](OC(C)=O)C2CC3=C4CC(=O)O[C@@H](c5ccoc5)[C@]4(C)CCC3[C@@]1(C)C2=O (stereo not given in full) | inactive
CC(=O)O[C@]1(C(C)=O)CC[C@H]2[C@@H]3C[C@H](C)C4=CC(=O)C=C[C@]4(C)[C@@]3(F)[C@@H](O)C[C@@]21C | inactive
CC(=O)C12OC(C)(C)OC1CC1C3CCC4=CC(=O)C=CC4(C)C3(F)C(O)CC12C (stereo not given) | inactive

From here, focus on the item given below.
Exam item: Give recorded activity change, negative = cytotoxicity. CC(/C=C/C1=CC2=CC(=O)C(C)(O)C(O)C2=CO1)=C\C(C)CCO (stereo not given)
Marked response: inactive

###

assay: P-glycoprotein substrates identified in KB-8-5-11 adenocarcinoma cell line, qHTS therapeutic library screen (AID 1346987); details: KB-8-5-11 (P-gp overexpressing) viability, CellTiter-Glo, 72 h; series mostly up to 44.5 µM; further: nearly all actives have a fitted effect of over 65% in size
Records with an inconclusive call do not appear. Calls of active or inactive are those of the source. Calls come from the whole dose curve; as a rule, active = well fitted inhibition curve with a large enough effect; inconclusive = small, poorly fitted or top-dose-only effect; inactive = flat fitted curve, though single readings scatter.
Can you answer with just one of these options? true for active, false for inactive

Exam item: What call does the record list for O=C(Nc1ccc(S(=O)(=O)C(F)(F)F)cc1)C1=CCN(c2ncccc2C(F)(F)F)CC1 ?
Marked response: true

Exam item: What call does the record list for C=C[C@]1(C)C[C@H](O)[C@@H]2[C@H](OC(=O)[C@@H]2C)C1/C(C)=C/O[C@@H]1O[C@H](CO)[C@@H](O)[C@H](O)[C@H]1O (stereo partly drawn) ?
Marked response: false

Exam item: What call does the record list for COc1cc(/C=C/C=O)cc(OC)c1O[C@@H]1O[C@H](CO)[C@@H](O)[C@H](O)[C@H]1O ?
Marked response: false

Exam item: What call does the record list for CC(=O)OC1CC2(C)C3=CCC4(C)C5C(O)C(O)C(C(C)C)C5(C)CCC4(C)C3CCC2C(C)(C)C1OC1OC(CO)C(O)C(O)C1O (stereo not drawn) ?
Marked response: false

Exam item: What call does the record list for CC1CC(O)/C=C/C(O)C(O)CC(=O)Cc2c(Cl)c(O)cc(O)c2C(=O)O1 (stereo not drawn) ?
Marked response: false

Exam item: What call does the record list for COc1c2c(c(C)c3c1C(=O)OC3)OC1(C)CC(O)C34OC(OC)(CC(OC(C)=O)C3(C)C1C2)OC4(C)C (stereo not drawn) ?
Marked response: false

Exam item: What call does the record list for C=C1CCC2C(C)(COC(C)=O)CCCC2(C)C1CCC(C)CC(=O)O (stereo not drawn) ?
Marked response: false

Exam item: What call does the record list for CC[C@@H](O)C[C@@H]1C(C)=C[C@@H]2CCCC[C@@H]2[C@@]1(C)C(=O)O ?
Marked response: false

Exam item: What call does the record list for COc1cc(O)cc(C)c1C(=O)OC1C(CO)OC(OC2C(O)C(O)C(O)C(O)C2O)C(O)C1O (stereo not drawn) ?
Marked response: false

Exam item: What call does the record list for Clc1cc2c(NC3CCCC3)nnc(-c3ccncc3)c2cc1Cl ?
Marked response: false

Exam item: What call does the record list for O=C(Cc1ccc(-c2ccccc2)cc1)NC1CCC1 ?
Marked response: false

Exam item: What call does the record list for CC(C)(C)Nc1nc2cc(Cl)c(Cl)cc2nc1S(C)(=O)=O ?
Marked response: true

Exam item: What call does the record list for CC(=O)OC/C=C(\C)C(CC1C(C)=C(OC(C)=O)C(=O)C2C(C)(C)C(O)CCC12C)OC(C)=O (stereo not drawn) ?
Marked response: false

Exam item: What call does the record list for CCCN1CCC(c2cccc(S(C)(=O)=O)c2)CC1 ?
Marked response: false

Exam item: What call does the record list for CCC(O)(C(=O)OCc1ccccc1NC(=O)CCC(=O)O)C(C)O (stereo not drawn) ?
Marked response: false

Exam item: What call does the record list for C/C=C/C1=CC2=C(CO1)C(=O)C(C)(O)C(OC(=O)c1c(C)cc(OC)cc1O)C2 (stereo not drawn) ?
Marked response: false

Exam item: What call does the record list for COc1cccc(C(=O)N2CCN(C(=O)COc3cccc(C)c3)CC2)c1OC ?
Marked response: true

Exam item: What call does the record list for CC1(C)CC[C@]2(C(=O)O[C@@H]3O[C@H](CO)[C@@H](O)[C@H](O)[C@H]3O)CC[C@]3(C)C(=CCC4[C@@]5(C)C[C@@H](O)[C@H](O)[C@](C)(C=O)C5CC[C@]43C)[C@@H]2[C@@H]1O (stereo partly drawn) ?
Marked response: false

###

test system: OV90; test: Primary qHTS to identify gynecologic anti-cancer compounds using libraries of approved drugs and bioactive compounds (AID 1345084); settings: Gynecologic cancer cell panel viability, ATPlite luminescence, 48 h; series mostly up to 57.5 µM; further: on the % scale 0 is the no-effect control and ±100 the full control effect; nearly all actives have a fitted effect of over 55% in size
Results filed as inconclusive are left out. Calls of active or inactive are those of the source. Calls come from the whole dose curve; as a rule, active = well fitted cell-killing curve with a large enough effect; inconclusive = small, poorly fitted or top-dose-only effect, or effect the other way; inactive = flat fitted curve, though single readings scatter.
metric.name: activity change, negative = cytotoxicity

Before answering, review these 5 worked examples.
COC1CC(OC2CCC3(C)C(=CCC4C3C(OC(C)=O)C(OC(=O)/C=C/c3ccccc3)C3(C)C(C(C)O)CCC43O)C2)OC(C)C1OC1CC(OC)C(OC2OC(C)C(OC3OC(CO)C(O)C(O)C3O)C(OC)C2O)C(C)O1 (stereo unspecified) | -2.22% [at 6.55 µM] (inactive)
C=C[C@H]1C(O[C@@H]2O[C@H](CO)[C@@H](O)[C@H](O)[C@H]2O)OC=C2C(=O)N3CCc4c([nH]c5ccccc45)[C@H]3C[C@H]21 (stereo partly specified) | inactive
CC(C)[C@@H]1C(=O)N(S(C)(=O)=O)[C@@H]2CCN(C(=O)/C=C/CN3CCCCC3)[C@H]21 | inactive
CC[C@H]1OC(=O)[C@H](C)[C@@H](O[C@H]2C[C@@](C)(OC)[C@@H](O)[C@H](C)O2)[C@H](C)[C@@H](O[C@@H]2O[C@H](C)C[C@H](N(C)C)[C@H]2O)[C@](C)(O)C[C@@H](C)C(=O)[C@H](C)[C@H]2OC(=O)O[C@@]21C | inactive
CC(=O)O[C@@H]1[C@@H](CO)O[C@@](CO)(O[C@H]2O[C@H](COC(=O)/C=C/c3ccccc3)[C@@H](O)[C@H](O)[C@H]2O)[C@H]1O | inactive

Exam item: Give recorded activity change, negative = cytotoxicity. C=CC[C@]12C[C@@H](OC)C(=O)C(OC)=C1O[C@@H](c1cc(OC)c3c(c1)OCO3)[C@@H]2C
Marked response: inactive

###

tested on: Nanoluciferase (engineered Oplophorus gracilirostris luciferase); assay: Primary Nanoluciferase (NLuc) qHTS assay for identification of artifact compounds. (AID 1845222); conditions: NLuc-conditioned medium, Nano-Glo luminescence, 5 min; series mostly up to 54.1 µM;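 further: NLuc secreted into diluted conditioned medium of S16 cells; 0% = DMSO and -100% = no enzyme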
Active and inactive are the calls of the source. Calls come from the whole dose curve; as a rule, active = well fitted inhibition curve with a large enough effect; inconclusive = small, poorly fitted or top-dose-only effect; inactive = flat fitted curve, though single readings scatter.
metric.name: activity, negative = inhibition

CC[C@H](CO)Nc1nc(NCc2ccc(-c3ccccn3)cc2)c2ncn(C(C)C)c2n1 | inactive
CC1(C)C2CC=C(COC3OC(COC4OCC(O)(CO)C4O)C(O)C(O)C3O)C1C2 (stereo not drawn) | inactive
COC1CC(O[C@H]2CC[C@@]3(C)C(CCC4C3[C@H](OC(C)=O)[C@@H](OC(=O)/C=C/c3ccccc3)[C@]3(C)C(C(C)=O)CC[C@]43O)C2)OC(C)C1OC1CC(OC)C(OC2CC(OC)C(OC3OC(C)C(OC4OC(CO)C(O)C(O)C4O)C(OC)C3O)C(C)O2)C(C)O1 (stereo partly drawn) | -1.88% [at 11.6 µM] (inactive)

###

test: P-glycoprotein substrates identified in KB-8-5-11 adenocarcinoma cell line, qHTS therapeutic library screen (AID 1346987); settings: KB-8-5-11 (P-gp overexpressing) viability, CellTiter-Glo, 72 h; series mostly up to 44.5 µM; further: nearly all actives have a fitted effect of over 65% in size
Inconclusive results are not listed. Active and inactive are the calls of the source. Calls come from the whole dose curve; as a rule, active = well fitted inhibition curve with a large enough effect; inconclusive = small, poorly fitted or top-dose-only effect; inactive = flat fitted curve, though single readings scatter.
Can you answer with just one of these options? active, inactive

Exam item: What call does the record list for COc1cc2c(cc1OC)CC(=O)N(CCCNC[C@H]1Cc3cc(OC)c(OC)cc31)CC2 ?
Marked response: inactive

Exam item: What call does the record list for COc1cc(C)c(C(=O)O[C@H]2[C@@H](OC(C)=O)[C@H](n3ccc(=O)[nH]c3=O)O[C@@H]2CO)c(OC)c1 ?
Marked response: inactive

Exam item: What call does the record list for Cc1ccc(NC(=O)Nc2cc(C(F)(F)F)ccc2F)cc1Nc1ccc2c(c1)NC(=O)/C2=C\c1ccc[nH]1 ?
Marked response: active

Exam item: What call does the record list for CC12CCC(C(OC3OC(COC4OCC(O)(CO)C4O)C(O)C(O)C3O)C1)C(C)(C)O2 (stereo not given) ?
Marked response: inactive

Exam item: What call does the record list for CC1=C(CO)C(=O)O[C@@H]([C@@H](C)[C@H]2CC[C@H]3[C@@H]4C[C@H]5O[C@]56[C@@H](O)C=CC(=O)[C@]6(C)[C@H]4CC[C@]23C)C1 ?
Marked response: active

Exam item: What call does the record list for CO[C@@H](C)Cn1c(=O)n(C)c2cnc3ccc(-c4cncc(C(C)(C)O)c4)cc3c21 ?
Marked response: active

Exam item: What call does the record list for CCOc1cc(CC(=O)NC(CC(C)C)c2ccccc2N2CCCCC2)ccc1C(=O)O (stereo not given) ?
Marked response: inactive

Exam item: What call does the record list for COC(=O)C[C@H]1[C@]2(C)C3=C(C)[C@H](c4ccoc4)C[C@H]3O[C@@H]2[C@H](OC(C)=O)C2[C@](C)(C(=O)OC)C=CC(=O)[C@@]21C (stereo not given in full) ?
Marked response: inactive

Exam item: What call does the record list for CC1(C)C[C@H](O)C[C@@]2(C)OC(=O)C=C12 ?
Marked response: inactive

Exam item: What call does the record list for CC(C)[C@H]1CC[C@@]2(O)COC(=O)[C@H]2[C@@H]1/C=C(\CO)C(=O)O ?
Marked response: inactive

Exam item: What call does the record list for N#Cc1ccc(C(=O)N2CCC3(CC2)N=C(N)c2c(F)ccc(F)c2N3)cn1 ?
Marked response: inactive

Exam item: What call does the record list for COC(=O)N(C)c1c(N)nc(-c2nn(Cc3ccccc3F)c3ncccc23)nc1N ?
Marked response: inactive

Exam item: What call does the record list for COc1cc(C)c(C(=O)Oc2cc(C)c(C(=O)Oc3cc(C)c(C(=O)NC(C)C(=O)O)c(O)c3)c(O[C@@H]3O[C@H](CO)[C@@H](O)[C@H](O)[C@H]3OC(C)=O)c2)c(OC)c1 (stereo not given in full) ?
Marked response: inactive

Exam item: What call does the record list for C[C@@H]1CC[C@]2(C(=O)O)CC[C@]3(C)C(=CCC4[C@@]5(C)CC[C@H](O)C(C)(C)C5C(O)C[C@]43C)[C@@H]2[C@]1(C)O (stereo not given in full) ?
Marked response: inactive

Exam item: What call does the record list for CC(C)(O[C@@H]1O[C@H](CO)[C@@H](O)[C@H](O)[C@H]1O)C(OC(=O)/C=C\c1ccc(O)cc1)C(=O)OCc1ccc(O[C@@H]2O[C@H](CO)[C@@H](O)[C@H](O)[C@H]2O)cc1 (stereo not given in full) ?
Marked response: inactive
